target-system: DP-IV (Sus scrofa (Pig))
measurement-notes: DPP IV inhibition: thioxamide v. oxoamide
Assay type: biochemical, porcine
condition-notes: pH 8.0; read-out: IC50 (pH 8.0)
Method: The inhibitory activity of a compound may be tested easily. […] A compound is then screened for its ability to inhibit the protease activity of DP-IV with respect to a natural substrate. […] The reaction was initiated by the addition of enzyme and reaction rates were measured at 25 C; formation of reaction product (para-nitroanilide) in the presence and absence of a test compound can be detected photometrically, e.g., at 410 nm.
measured-quantity: IC50 (µM)

Measured IC50 for this entry N[C@@H](CCCC(=O)O)C(=O)N1CCC[C@H]1B(O)O [Aad-boroPro, reference compound] on DP-IV (Sus scrofa (Pig)): 7.4

Measured IC50 for this entry OB(O)[C@@H]1CCCN1C(=S)CNCc1ccccc1 [N-(Benzyl)-Gly-boroPro Thioxamide] on DP-IV (Sus scrofa (Pig)): 0.17

Measured IC50 for this entry N[C@@H](Cc1c[nH]c2ccccc12)C(=O)N1CCC[C@H]1B(O)O [Trp-boroPro, reference compound] on DP-IV (Sus scrofa (Pig)): 3

A: O=C(CNCc1ccccc1)N1CCC[C@H]1B(O)O [N-(Benzyl)-Gly-boroPro, reference compound]
B: C[C@H](NC(=O)[C@H](C)N)B(O)O [Ala-boroAla, reference compound]
For A and B , which recorded IC50 is lower? The response must carry the label of the picked entry.
B
(B: 0.44 µM, A: 69 µM)

###

target-system: DP-IV (Sus scrofa (Pig))
measurement-notes: DPP IV inhibition: thioxamide v. oxoamide
Assay type: biochemical, porcine
condition-notes: pH 2.0; read-out: IC50 (pH 2.0)
measured-quantity: IC50 (nM)

The reported value for N=C(N)NCCC[C@H](N)C(=O)N1CCC[C@H]1B(O)O [Arg-boroPro, reference compound] in terms of IC50 is 1.8

I: N[C@@H](CCC(=O)O)C(=S)N1CCC[C@H]1B(O)O [Glu-boroPro Thioxamide]
II: C[C@H](NC(=O)[C@H](C)N)B(O)O [Ala-boroAla, reference compound]
Of I and II , which one carries the higher reported IC50? The response must carry the label of the picked entry.
II

1: O=C([C@@H]1CCCN1)N1CCC[C@H]1B(O)O [Pro-boroPro, reference compound]
2: NCC(=S)N1CCC[C@H]1B(O)O [Gly-boroPro Thioxamide]
Of 1 and 2 , which one carries the higher reported IC50? The response must carry the label of the picked entry.
2
(2: 3 nM, 1: 1.1 nM)

I: O=C(CNC12CC3CC(CC(O)(C3)C1)C2)N1CCC[C@H]1B(O)O [NVP-LAF237 analogue, reference compound]
II: OB(O)[C@@H]1CCCN1C(=S)CNC12CC3CC(CC(O)(C3)C1)C2 [NVP-LAF237 analogue Thioxamide]
Of I and II , which one carries the higher reported IC50? The response must carry the label of the picked entry.
II

###

target-system: DP-IV (Sus scrofa (Pig), UniProt P22411)
Sequence (P22411 whole entry): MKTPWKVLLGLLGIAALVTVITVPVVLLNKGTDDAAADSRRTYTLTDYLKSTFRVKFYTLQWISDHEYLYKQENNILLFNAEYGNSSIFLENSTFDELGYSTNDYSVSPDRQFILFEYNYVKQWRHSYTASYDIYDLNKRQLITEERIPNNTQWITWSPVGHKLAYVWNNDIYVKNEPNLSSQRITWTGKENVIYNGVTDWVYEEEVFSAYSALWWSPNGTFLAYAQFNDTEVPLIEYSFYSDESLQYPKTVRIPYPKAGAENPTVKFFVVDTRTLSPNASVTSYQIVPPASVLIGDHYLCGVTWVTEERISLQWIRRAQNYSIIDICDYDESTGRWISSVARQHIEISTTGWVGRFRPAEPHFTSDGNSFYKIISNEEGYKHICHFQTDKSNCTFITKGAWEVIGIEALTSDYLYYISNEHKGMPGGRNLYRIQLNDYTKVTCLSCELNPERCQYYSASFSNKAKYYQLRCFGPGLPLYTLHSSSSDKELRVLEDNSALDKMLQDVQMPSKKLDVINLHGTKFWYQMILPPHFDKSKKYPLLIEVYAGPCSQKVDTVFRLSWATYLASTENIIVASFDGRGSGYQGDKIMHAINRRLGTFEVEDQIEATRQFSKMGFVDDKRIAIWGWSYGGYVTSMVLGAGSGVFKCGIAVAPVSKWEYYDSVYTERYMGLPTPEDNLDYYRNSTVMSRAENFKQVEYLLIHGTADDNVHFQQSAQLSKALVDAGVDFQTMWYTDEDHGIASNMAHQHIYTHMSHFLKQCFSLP
measurement-notes: DPP IV inhibition: thioxamide v. oxoamide
Assay type: biochemical, porcine
condition-notes: IC50 pH 8.0 to pH 2.0
measured-quantity: Inactivation Index

The reported value for N[C@@H](Cc1c[nH]c2ccccc12)C(=O)N1CCC[C@H]1B(O)O [Trp-boroPro, reference compound] in terms of Inactivation Index is 1500

P: CC(C)[C@H](N)C(=S)N[C@@H](C)B(O)O [Val-boroAla Thioxamide]
Q: OB(O)[C@@H]1CCCN1C(=S)CNC12CC3CC(CC(O)(C3)C1)C2 [NVP-LAF237 analogue Thioxamide]
For P and Q , which recorded Inactivation Index is lower? The response must carry the label of the picked entry.
P

a: C[C@H](NC(=S)[C@H](C)N)B(O)O [Ala-boroAla Thioxamide]
b: C[C@H](NC(=O)[C@H](C)N)B(O)O [Ala-boroAla, reference compound]
Of a and b , which one carries the higher reported Inactivation Index? The response must carry the label of the picked entry.
b
(b: 7.0, a: 1.2)

a: NCC(=S)N1CCC[C@H]1B(O)O [Gly-boroPro Thioxamide]
b: OB(O)[C@@H]1CCCN1C(=S)CNCc1ccccc1 [N-(Benzyl)-Gly-boroPro Thioxamide]
Of a and b , which one carries the higher reported Inactivation Index? The response must carry the label of the picked entry.
a

A: N[C@@H](CCC(=O)O)C(=S)N1CCC[C@H]1B(O)O [Glu-boroPro Thioxamide]
B: O=C(CNC12CC3CC(CC(O)(C3)C1)C2)N1CCC[C@H]1B(O)O [NVP-LAF237 analogue, reference compound]
For A and B , which recorded Inactivation Index is lower? The response must carry the label of the picked entry.
B
(B: 1.7, A: 190)
